# credit: patent US11795460B2

test system: off-target integration sites; assay: Off-target oligo insertion based assay in primary human hepatocytes (Table 30); type: cell-based; conditions: TTR sgRNAs in PHH, 100 ng Cas9 mRNA, 25 nM sgRNA, 12.5 nM donor oligo
Strand notation (5' to 3'): a small letter for the sugar, then the base; units joined by * are phosphorothioate-linked, units joined directly phosphodiester-linked; [ ] holds rarer units or linkages, { } end groups; capitals alone tell only the bases. m = 2'-O-methyl; r = 2'-OH (RNA)
# key: entry, value: # Sites in PHH

Example entries begin here.
# molecule, # Sites in PHH
measured = [
    ("G000482: TTR sgRNA modified sequence, Human, SEQ ID No. 89; guide sequence of CR003365 (nucleic acid) guide: mU*mG*mU*rArGrArArGrGrGrArUrArUrArCrArArArGrGrUrUrUrUrArGrAmGmCmUmAmGmAmAmAmUmAmGmCrArArGrUrUrArArArArUrArArGrGrCrUrArGrUrCrCrGrUrUrArUrCrAmAmCmUmUmGmAmAmAmAmAmGmUmGmGmCmAmCmCmGmAmGmUmCmGmGmUmGmCmU*mU*mU*mU", 2),
    ("G000500: TTR sgRNA modified sequence, Human, SEQ ID No. 107; guide sequence of CR003337 (nucleic acid) guide: mC*mC*mA*rGrUrCrCrArGrCrArArGrGrCrArGrArGrGrGrUrUrUrUrArGrAmGmCmUmAmGmAmAmAmUmAmGmCrArArGrUrUrArArArArUrArArGrGrCrUrArGrUrCrCrGrUrUrArUrCrAmAmCmUmUmGmAmAmAmAmAmGmUmGmGmCmAmCmCmGmAmGmUmCmGmGmUmGmCmU*mU*mU*mU", 12),
    ("G000497: TTR sgRNA modified sequence, Human, SEQ ID No. 104; guide sequence of CR003335 (nucleic acid) guide: mC*mU*mG*rCrUrCrCrUrCrCrUrCrUrGrCrCrUrUrGrCrGrUrUrUrUrArGrAmGmCmUmAmGmAmAmAmUmAmGmCrArArGrUrUrArArArArUrArArGrGrCrUrArGrUrCrCrGrUrUrArUrCrAmAmCmUmUmGmAmAmAmAmAmGmUmGmGmCmAmCmCmGmAmGmUmCmGmGmUmGmCmU*mU*mU*mU", 3),
    ("G000484: TTR sgRNA modified sequence, Human, SEQ ID No. 91; guide sequence of CR003367 (nucleic acid) guide: mA*mG*mA*rCrArCrCrArArArUrCrUrUrArCrUrGrGrArGrUrUrUrUrArGrAmGmCmUmAmGmAmAmAmUmAmGmCrArArGrUrUrArArArArUrArArGrGrCrUrArGrUrCrCrGrUrUrArUrCrAmAmCmUmUmGmAmAmAmAmAmGmUmGmGmCmAmCmCmGmAmGmUmCmGmGmUmGmCmU*mU*mU*mU", 0),
]

Report measured # Sites in PHH; entry is G000480: TTR sgRNA modified sequence, Human, SEQ ID No. 87; guide sequence of CR003353 (nucleic acid) guide: mA*mA*mA*rGrGrCrUrGrCrUrGrArUrGrArCrArCrCrUrGrUrUrUrUrArGrAmGmCmUmAmGmAmAmAmUmAmGmCrArArGrUrUrArArArArUrArArGrGrCrUrArGrUrCrCrGrUrUrArUrCrAmAmCmUmUmGmAmAmAmAmAmGmUmGmGmCmAmCmCmGmAmGmUmCmGmGmUmGmCmU*mU*mU*mU
2
